# tested on: T1, Aβ1-42
# T1 construct: also called 1-42 (WT); Aβ peptide 1-42
# T1 sequence (peptide, as listed by the source): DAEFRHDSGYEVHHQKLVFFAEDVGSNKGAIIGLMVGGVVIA
# experiment: ELISA, nonbiotinylated peptide on plate
# A450 ELISA per record follows
Respond numerically; units are A450 and should not be typed.

Worked cases, answers included:
| binder | numeric value |
| --- | --- |
| 6G light chain mutant variant 5B (Q94G) (antibody, V domains shown) VH: QVQLVQSGAEVKKPGASVKVSCKASGYTFTTYAIHWVRQAPGQGLEWMGFTSPYSGVSNYNQKFKGRVTMTRDTSTSTVYMELSSLRSEDTAVYYCARFDNYDRGYVRDYWGQGTLVTVS VL: DIVMTQSPDSLAVSLGERATINCRASESVDNDRISFLNWYQQKPGQPPKLLIYAATKQGTGVPDRFSGSGSGTDFTLTISSLQAEDVAVYYCQGSKEFPWSFGGGTKVEIKR | 0.14 |
| 6G light chain mutant variant 10E (S95L) (antibody, V domains shown) VH: QVQLVQSGAEVKKPGASVKVSCKASGYTFTTYAIHWVRQAPGQGLEWMGFTSPYSGVSNYNQKFKGRVTMTRDTSTSTVYMELSSLRSEDTAVYYCARFDNYDRGYVRDYWGQGTLVTVS VL: DIVMTQSPDSLAVSLGERATINCRASESVDNDRISFLNWYQQKPGQPPKLLIYAATKQGTGVPDRFSGSGSGTDFTLTISSLQAEDVAVYYCQQLKEFPWSFGGGTKVEIKR | 0.12 |
| 6G heavy chain mutant variant 7D (N101C) (antibody, V domains shown) VH: QVQLVQSGAEVKKPGASVKVSCKASGYTFTTYAIHWVRQAPGQGLEWMGFTSPYSGVSNYNQKFKGRVTMTRDTSTSTVYMELSSLRSEDTAVYYCARFDCYDRGYVRDYWGQGTLVTVS VL: DIVMTQSPDSLAVSLGERATINCRASESVDNDRISFLNWYQQKPGQPPKLLIYAATKQGTGVPDRFSGSGSGTDFTLTISSLQAEDVAVYYCQQSKEFPWSFGGGTKVEIKR | 0.31 |
| 6G light chain mutant variant 7E (Q94R) (antibody, V domains shown) VH: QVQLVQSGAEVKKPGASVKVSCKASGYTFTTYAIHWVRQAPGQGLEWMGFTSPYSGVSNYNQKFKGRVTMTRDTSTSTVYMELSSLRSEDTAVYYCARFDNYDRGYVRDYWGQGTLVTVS VL: DIVMTQSPDSLAVSLGERATINCRASESVDNDRISFLNWYQQKPGQPPKLLIYAATKQGTGVPDRFSGSGSGTDFTLTISSLQAEDVAVYYCQRSKEFPWSFGGGTKVEIKR | 0.18 |

Exam item: Quickly give me recorded A450 ELISA for 6G light chain mutant variant 7F (Q94K) (antibody, V domains shown) VH: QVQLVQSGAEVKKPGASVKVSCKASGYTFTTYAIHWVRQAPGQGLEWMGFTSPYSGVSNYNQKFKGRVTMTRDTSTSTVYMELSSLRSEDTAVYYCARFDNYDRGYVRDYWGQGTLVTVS VL: DIVMTQSPDSLAVSLGERATINCRASESVDNDRISFLNWYQQKPGQPPKLLIYAATKQGTGVPDRFSGSGSGTDFTLTISSLQAEDVAVYYCQKSKEFPWSFGGGTKVEIKR
Marked response: 0.19

Exam item: Quickly give me recorded A450 ELISA for 6G light chain mutant variant 6E (E97P) (antibody, V domains shown) VH: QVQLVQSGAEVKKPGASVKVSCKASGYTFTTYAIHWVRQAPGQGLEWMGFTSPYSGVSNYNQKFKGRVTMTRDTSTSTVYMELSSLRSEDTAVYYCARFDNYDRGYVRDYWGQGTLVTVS VL: DIVMTQSPDSLAVSLGERATINCRASESVDNDRISFLNWYQQKPGQPPKLLIYAATKQGTGVPDRFSGSGSGTDFTLTISSLQAEDVAVYYCQQSKPFPWSFGGGTKVEIKR
Marked response: 0.2
